Ref: PubChem BioAssay (NCI)

TGI values for the compounds below.
# Tested on: OVCAR-3 ovarian
# Assay overview: NCI tumour cell line growth inhibition, 48 h

Guide cases for TGI, answers given:
[[record]]
compound = "CC[C@@H]1/C=C/C=C/C[C@H](C)[C@@H](O)[C@](C)(O)C(=O)[C@H](C)[C@@H](O)[C@H](C)C(=O)[C@H](C)[C@@H](O)[C@H](C)/C=C/C(=O)O[C@H]2[C@@H](C)[C@@H](CC1)O[C@]1(O[C@H](CC(C)O)[C@H](C)CC1=O)[C@@H]2C (stereo partly specified)"
recorded_measurement = "13.1 µM"

[[record]]
compound = "COc1ccc2c(c1)OCc1c-2oc2ccccc2c1=O"
recorded_measurement = "> 100 µM"

[[record]]
compound = "Cn1cc(C2=C(c3cn(C)c4c(N)cccc34)C(=O)NC2=O)c2ccccc21"
recorded_measurement = "1.45 µM"

[[record]]
compound = "O=C(O)C(Sc1ccc(Cl)cc1)Sc1ccc(Cl)cc1"
recorded_measurement = "82.6 µM"

[[record]]
compound = "Cc1nc(N)c(N2CCNCC2)c(=O)[nH]1"
recorded_measurement = "> 100 µM"


Enquiry: Using the record for "CCSc1nc(N2CCOCC2)c2cn[nH]c2n1" , report its TGI.
Return: > 100 µM

Enquiry: Try CCC1(O)C(=O)OCc2c1cc1n(c2=O)Cc2cc3c(N)cccc3nc2-1 (stereo unspecified) next.
Return: 3.02 µM

Enquiry: What do we get for "Cc1[nH]c(=O)[nH]c(=S)c1C(=O)NC(C)(CO)CO" ?
Return: > 100 µM

Enquiry: Entry "CCN(CC)C(=O)C/C(C)=N/NC(=O)c1ccncc1" please
Return: > 100 µM

Enquiry: Param item: "O=[N+]([O-])c1ccccc1N=Nc1c(O)sc2ccccc12"
Return: > 100 µM
